Each entry below lists one item and its recorded DR7 binding data value.
biological target: DRB1*0701 (DR7) (Homo sapiens, UniProt P01903+P01911, A100R/A102G/A103Q/D57E/D86V/E43K/F76Y/K127E/L162R/M171V/P40G/Q125H/Q99D/R33Q/R42Y/R54Q/S133A/S66F/T210M/V115G/Y107V/Y59L/Y89S); experiment: HLA class II peptide binding assay, purified HLA; conditions: Table XIX, DR supermotif peptides; unit not given
// no unit string in output, number only

Would you please look over these solved cases?
• CC[C@H](C)[C@H](NC(=O)CNC(=O)[C@H](CC(=O)O)NC(=O)[C@H](Cc1ccc(O)cc1)NC(=O)[C@@H]1CCCN1C(=O)[C@H](CCCCN)NC(=O)[C@H](C)NC(=O)CNC(=O)[C@H](Cc1ccccc1)NC(=O)[C@@H](NC(=O)[C@H](CCSC)NC(=O)[C@H](CC(C)C)NC(=O)[C@H](CCC(=O)O)NC(=O)[C@H](Cc1c[nH]c2ccccc12)NC(=O)[C@@H](N)C(C)C)[C@@H](C)O)C(=O)O = 0.0370
• CC[C@H](C)[C@H](NC(=O)[C@H](CCCNC(=N)N)NC(=O)CNC(=O)[C@H](CCCNC(=N)N)NC(=O)[C@@H](NC(=O)[C@@H](NC(=O)[C@H](CCC(N)=O)NC(=O)[C@H](CC(C)C)NC(=O)[C@H](CC(N)=O)NC(=O)[C@H](CCC(N)=O)NC(=O)[C@H](Cc1ccccc1)NC(=O)[C@@H](NC(=O)[C@H](CO)NC(=O)[C@@H](N)CC(C)C)C(C)C)C(C)C)[C@@H](C)CC)C(=O)N[C@@H](CC(C)C)C(=O)O = 0.2900

Kindly review the next compound as well.
Give reported DR7 binding data value for CC[C@H](C)[C@H](NC(=O)CNC(=O)[C@H](CC(C)C)NC(=O)[C@H](CC(C)C)NC(=O)[C@H](CCCNC(=N)N)NC(=O)[C@@H](N)CO)C(=O)N[C@@H](CS)C(=O)N[C@@H](CC(C)C)C(=O)N[C@H](C(=O)N[C@@H](CO)C(=O)N[C@H](C(=O)N[C@H](C(=O)N[C@@H](CCC(N)=O)C(=O)N[C@@H](CC(C)C)C(=O)N[C@H](C(=O)O)C(C)C)C(C)C)[C@@H](C)O)[C@@H](C)O 0.5600

----------
target: DRB1*0401 (DR4w4) (Homo sapiens, UniProt P01903+P01911, A100K/A169T/F76Y/I96L/K127E/L162R/M171V/N62H/P40V/Q125Y/R42H/S133A/S149N/S66Y/V115G/V209L/W38E); experiment: HLA class II peptide binding assay, purified HLA; conditions: Table XIX, DR supermotif peptides; unit not given
Where no end group is shown, it is not given here.
measured.metric: DR4w4 binding data

Sample answers from the record:
- QPDVRPQPPSPREGP: −0.0032
- TDGYVAPLTCSPQPE: −0.0032
- ETELVEPLTPSGAMP: −0.0025
- ITDFGLARLLDIDET: −0.0032
- VEPLTPSGAMPNQAQ: −0.0025

For the sequence IKVLRENTSPKANKE , give its reported DR4w4 binding data. −0.0032

Retrieve DR4w4 binding data measured for VCPLHNQEVTAEDGT and print it. −0.0025

Check the records and state DR4w4 binding data for QGFFCPDPAPGAGGM 0.0230

Source of measurements: patent US20040121946A9
